Listing of recorded solubility kinetic by entry.
# measurement-conditions: buffer; pH 7.4; 200.0 µM
Respond with the bare value in µg/mL.

Examples from the recorded data:
Cc1ccc(NC(=O)Cn2c(=O)oc3ccccc32)cc1Cl | 0.9
Cc1ccc(C(=O)C(=O)c2ccc(C)c(N)c2)cc1N | 35
Cc1cc(N2CCN(C(=O)c3ccco3)CC2)c2ccccc2n1 | 44.7
O=C1NC(=O)c2cc3ccccc3cc21 | 10.6

Note: attention shifts to another entry.
[in] Please supply the value of reported solubility kinetic for the item "Cc1csc(NC(=O)CCNC(=O)c2ccccc2Cl)n1"
[out] 43.9

----------
# measurement-conditions: buffer; pH 7.4; 200.0 µM
outcome-measure: solubility kinetic

Examples from the recorded data:
CS(=O)(=O)Nc1ccc(-c2cn3c(n2)SCC3)cc1 | 43.6 µg/mL
COc1ccc(C)cc1NC(=O)CN1C(=O)C2CC=CCC2C1=O (stereo unspecified) | > 49.3 µg/mL
Cc1cc(=O)[nH]c(Nc2cccc(Br)c2)n1 | > 42 µg/mL

[in] Please supply the value of reported solubility kinetic for the item "COc1ccc(/C=C/C(=O)NC(=S)N2CCCCC2)cc1OC"
[out] > 50.2 µg/mL

[in] Please supply the value of reported solubility kinetic for the item "COc1ccc(Nc2oc(-c3ccccc3)nc2C#N)cc1"
[out] 0.5 µg/mL

[in] Please supply the value of reported solubility kinetic for the item "CCCn1cnc2cc(NC(=O)c3cccs3)ccc21"
[out] > 42.8 µg/mL
